For each record, write down the corresponding IC50.
Tested on: Hepatitis B virus
test-summary: Antiviral activity against HBV infected in human HepG2(2.2.15) cells assessed as inhibition of viral DNA replication by measuring HBsAg and HBeAg production after 9 days by EIA
Type: functional, organism-based
cond: HepG2 2.2.15, 216 h
Peptide text beside a SMILES is read from it. * marks the point of attachment. 4Abz = Nc1ccc(C(=O)O)cc1; Propionyl = CCC(=O)*; Bz = O=C(c1ccccc1)*
Give bare numbers, in µM.

Some molecules with recorded IC50:
molecule	quantity-unit	IC50
CCOc1ccc(C[C@H](NC(=O)[C@H](Cc2ccccc2)NC(=O)c2ccccc2)C(=O)OC)cc1 (Bz-Phe-Tyr(Et)-OMe)	µM	14
CN(C)CCOc1ccc(C(=O)N[C@@H](Cc2ccccc2)C(=O)N[C@H](CO)Cc2ccccc2)cc1	µM	27.6
CN(C)Cc1ccc(C(=O)N[C@@H](Cc2ccccc2)C(=O)N[C@H](CO)Cc2ccccc2)cc1	µM	15.8

For each of the items listed, what is its IC50?
1. COC(=O)[C@H](Cc1ccc(O)cc1)NC(=O)[C@H](Cc1ccccc1)NC(=O)c1ccncc1
2. CCCCOc1ccc(C[C@H](NC(=O)[C@H](Cc2ccccc2)NC(=O)c2ccccc2)C(=O)[O-])cc1.[Na+]
3. COc1ccc(C[C@H](NC(=O)[C@H](Cc2ccccc2)NC(=O)c2ccccc2)C(=O)[O-])cc1.[Na+] (Bz-Phe-Tyr(Me)-OH)
4. CCC(=O)Nc1ccc(C(=O)N[C@@H](Cc2ccccc2)C(=O)N[C@@H](Cc2ccccc2)C(=O)OC)cc1 ({Propionyl-4Abz}-Phe-Phe-OMe)

[A]
1. 5.39
2. 64.6
3. 20.5
4. 2.85

====

test-summary: Cytotoxicity against human HepG2(2.2.15) cells after 24 hours following 9 days of treatment by neutral red dye uptake assay
Type: cell-based
cond: read-out: TC50
Peptide text beside a SMILES is read from it. * marks the point of attachment. Bz = O=C(c1ccccc1)*
recorded-metric: CC50 at 216 h (µM)
One number for each entry, in µM.

Some compounds with recorded CC50 at 216 h:
compound	recorded-metric	quantitative-result
COc1ccc(C[C@H](NC(=O)[C@H](Cc2ccccc2)NC(=O)c2ccccc2)C(=O)[O-])cc1.[Na+] (Bz-Phe-Tyr(Me)-OH)	CC50 at 216 h	184
CC(=O)OC[C@H](Cc1ccccc1)NC(=O)[C@H](Cc1ccccc1)NC(=O)c1ccc(CN2CCOCC2)cc1	CC50 at 216 h	609
CC(=O)Nc1ccc(C(=O)N[C@@H](Cc2ccc(O)cc2)C(=O)N[C@H](CO)Cc2ccccc2)cc1	CC50 at 216 h	749
CCCCOc1ccc(C[C@H](NC(=O)[C@H](Cc2ccccc2)NC(=O)c2ccccc2)C(=O)[O-])cc1.[Na+]	CC50 at 216 h	979
CCOc1ccc(C[C@H](NC(=O)[C@H](Cc2ccccc2)NC(=O)c2ccccc2)C(=O)OC)cc1 (Bz-Phe-Tyr(Et)-OMe)	CC50 at 216 h	818

For each of the items listed, what is its CC50 at 216 h?
1. CC(=O)OC[C@H](Cc1ccccc1)NC(=O)[C@H](Cc1ccccc1)NC(=O)c1ccc(CN(C)C)cc1
2. CCOc1ccc(C[C@H](NC(=O)[C@H](Cc2ccccc2)NC(=O)c2ccccc2)C(=O)O)cc1 (Bz-Phe-Tyr(Et)-OH)
3. COC(=O)[C@H](Cc1ccccc1)NC(=O)[C@H](Cc1ccccc1)NC(=O)c1ccc(NC(=O)CN2CCCC2)cc1
4. CN(C)CCOc1ccc(C(=O)N[C@@H](Cc2ccccc2)C(=O)N[C@H](CO)Cc2ccccc2)cc1
5. O=C(N[C@@H](Cc1ccccc1)C(=O)N[C@H](CO)Cc1ccccc1)c1ccc(CN2CCOCC2)cc1

[A]
[508, 1010, 106, 327, 157]

For each of the items listed, what is its CC50 at 216 h?
1. COC(=O)[C@H](Cc1ccccc1)NC(=O)[C@H](Cc1ccccc1)NC(=O)c1ccncc1
2. CC(=O)Nc1ccc(C(=O)N[C@@H](Cc2ccccc2)C(=O)N[C@H](CCl)Cc2ccccc2)cc1

[A]
1. 1060
2. 30.1

====

test-summary: Cytotoxicity against human HepG2(2.2.15) cells after 24 hours following 9 days of treatment by neutral red dye uptake assay
Type: cell-based
cond: read-out: TC50
Square brackets hold non-standard residues; d marks the D form. Peptide text beside a SMILES is read from it. * marks the point of attachment. Phe(4-NO2) = N[C@@H](Cc1ccc([N+](=O)[O-])cc1)C(=O)O; 4Abz = Nc1ccc(C(=O)O)cc1; Propionyl = CCC(=O)*
recorded-metric: CC50 at 216 h
Provide a numeric answer, followed by its unit.

molecule	CC50 at 216 h
COC(=O)[C@H](Cc1ccc(O)cc1)NC(=O)[C@H](Cc1ccccc1)NC(=O)c1ccc(NC(C)=O)cc1 (Ac-[4Abz]-Phe-Tyr-OMe)	771 µM
CCC(=O)Nc1ccc(C(=O)N[C@@H](Cc2ccccc2)C(=O)N[C@@H](Cc2ccc([N+](=O)[O-])cc2)C(=O)OC)cc1 ({Propionyl-4Abz}-Phe-[Phe(4-NO2)]-OMe)	147 µM

Read the next record carefully.
[Q] Answer with the recorded CC50 at 216 h of `COC(=O)[C@H](Cc1ccc(O)cc1)NC(=O)[C@H](Cc1ccccc1)NC(=O)c1ccncc1` only.
[A] 867 µM

====

test-summary: Cytotoxicity against human HepG2(2.2.15) cells after 24 hours following 9 days of treatment by neutral red dye uptake assay
Type: cell-based
cond: read-out: TC50
Peptide text beside a SMILES is read from it. * marks the point of attachment. 4Abz = Nc1ccc(C(=O)O)cc1; Propionyl = CCC(=O)*
For each record, write down the corresponding CC50 at 216 h.

Some compounds with recorded CC50 at 216 h:
compound	CC50 at 216 h
O=C(N[C@@H](Cc1ccccc1)C(=O)N[C@H](CO)Cc1ccccc1)c1ccncc1	214 µM
CCC(=O)Nc1ccc(C(=O)N[C@@H](Cc2ccccc2)C(=O)N[C@@H](Cc2ccccc2)C(=O)OC)cc1 ({Propionyl-4Abz}-Phe-Phe-OMe)	258 µM
O=C(N[C@@H](Cc1ccc(O)cc1)C(=O)N[C@H](CO)Cc1ccccc1)c1ccncc1	612 µM

Read the next record carefully.
[Q] Answer with the recorded CC50 at 216 h of `COC(=O)[C@H](Cc1ccc([N+](=O)[O-])cc1)NC(=O)[C@H](Cc1ccc(O)cc1)NC(=O)c1ccncc1` only.
[A] 238 µM

====

Test system: Hepatitis B virus
test-summary: Antiviral activity against HBV infected in human HepG2(2.2.15) cells assessed as inhibition of viral DNA replication by measuring HBsAg and HBeAg production after 9 days by EIA
Assay type: functional, organism-based
cond: HepG2 2.2.15, 216 h
Square brackets hold non-standard residues; d marks the D form. Peptide text beside a SMILES is read from it. 4Abz = Nc1ccc(C(=O)O)cc1
recorded-metric: IC50 (µM)
Numbers only, in µM.

molecule	recorded-metric	quantitative-result
O=C(N[C@@H](Cc1ccccc1)C(=O)N[C@H](CO)Cc1ccccc1)c1ccc(CN2CCCC2)cc1	IC50	14.1
CCCCOc1ccc(C[C@H](NC(=O)[C@H](Cc2ccccc2)NC(=O)c2ccccc2)C(=O)OC)cc1	IC50	174
COC(=O)[C@H](Cc1ccc(O)cc1)NC(=O)[C@H](Cc1ccccc1)NC(=O)c1ccc(NC(C)=O)cc1 (Ac-[4Abz]-Phe-Tyr-OMe)	IC50	9.06

Read the next record carefully.
[Q] Answer with the recorded IC50 of `CC(=O)Nc1ccc(C(=O)N[C@@H](Cc2ccccc2)C(=O)N[C@H](CCl)Cc2ccccc2)cc1` only.
[A] 0.71

Numbers sourced from ChEMBL document CHEMBL1817553.
